Sourced from patent US8486933B2

Target: human IGF-1R (Homo sapiens)
Construct: human IGF-1R, amino acids 954-1367 expressed by baculovirus in Sf21 cells; GST (C)
Sequence (P08069 954-1367): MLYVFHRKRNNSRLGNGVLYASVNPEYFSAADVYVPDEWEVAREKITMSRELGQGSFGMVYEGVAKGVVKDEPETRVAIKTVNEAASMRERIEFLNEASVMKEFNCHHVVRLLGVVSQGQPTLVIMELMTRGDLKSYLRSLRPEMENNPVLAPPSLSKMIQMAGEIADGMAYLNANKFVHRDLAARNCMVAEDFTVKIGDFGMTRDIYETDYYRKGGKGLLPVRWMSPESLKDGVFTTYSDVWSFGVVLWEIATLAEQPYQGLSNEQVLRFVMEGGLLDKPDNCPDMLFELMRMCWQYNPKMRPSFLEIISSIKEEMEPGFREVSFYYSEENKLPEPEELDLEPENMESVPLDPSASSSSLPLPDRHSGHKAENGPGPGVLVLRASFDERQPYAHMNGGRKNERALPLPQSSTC
Assay: IGF-1R homogenous time-resolved fluorescence (HTRF) in vitro kinase assay
Conditions: recombinant GST-tagged human IGF-1R aa 954-1367; ATP 50 μM; 60 minutes at room temperature
pIC50: −log10 of the molar value.
For each entry below, report its pIC50 value.

Supply pIC50 value. Item: COc1cc(N2CCC(N3CCN(C)CC3)CC2)ccc1Nc1ncc(Br)c(Nc2ccc3cccnc3c2)n1 [Example 50] 7.30 to 8.00

Supply pIC50 value. Item: CN(C)C1CCN(c2ccc(Nc3ncc(Br)c(Nc4cc5cnn(C)c5cc4S(C)(=O)=O)n3)cc2)CC1 [Example 37] 7.30 to 8.00

Supply pIC50 value. Item: CCS(=O)(=O)c1cc2[nH]ncc2cc1Nc1nc(Nc2ccc(N3CCC(N(C)C)CC3)cc2)ncc1Br [Example 31] 7.30 to 8.00

Supply pIC50 value. Item: COc1cc(N2CCOCC2)ccc1Nc1ncc(Br)c(Nc2cc3cnn(C)c3cc2S(C)(=O)=O)n1 [Example 40] 7.30 to 8.00

Supply pIC50 value. Item: CNC(=O)c1cc2c(cnn2C)cc1Nc1nc(Nc2ccc(N3CCC(N(C)C)CC3)cc2OC)ncc1Br [Example 35] 7.30 to 8.00

Supply pIC50 value. Item: COc1cc(N2CCC(N(C)C)CC2)ccc1Nc1ncc(Br)c(Nc2ccc3c(cnn3C)c2)n1 [Example 19] 7.00 to 7.29

Supply pIC50 value. Item: CCN1CCN(c2ccc(Nc3ncc(C)c(Nc4ccc5[nH]ncc5c4)n3)cc2)CC1 [Example 9] < 6.30

Supply pIC50 value. Item: CCN1CCN(c2ccc(Nc3ncc(Br)c(Nc4ccc5[nH]ncc5c4)n3)cc2)CC1 [Example 7] 7.00 to 7.29

----------
Target: human IGF-1R (Homo sapiens)
Construct: human IGF-1R, amino acids 954-1367 expressed by baculovirus in Sf21 cells; GST (C)
Experiment: IGF-1R homogenous time-resolved fluorescence (HTRF) in vitro kinase assay
Conditions: recombinant GST-tagged human IGF-1R aa 954-1367; ATP 50 μM; 60 minutes at room temperature
Description: IGF-1R kinase activity was assayed by a homogenous time-resolved fluorescence (HTRF) in vitro kinase assay (Mathis, G., HTRF(R) Technology. J Biomol Screen, 1999. 4(6): p. 309-314). […] The quenched reaction was allowed to stand at room temperature for 1 hour and then read in a time-resolved fluorescence detector (Envision, Perkin Elmer) at 615 nm and 665 nm simultaneously. […]
readout_label: IC50

Supply IC50 value. Item: CCS(=O)(=O)c1cc2c(cnn2C)cc1Nc1nc(Nc2ccc(N3CCS(=O)(=O)CC3)cc2)ncc1Br [Example 45] 51 to 100 nM

Supply IC50 value. Item: COc1cc(N2CCC(N(C)C)CC2)ccc1Nc1ncc(Br)c(Nc2cc3cnn(C)c3cc2S(C)(=O)=O)n1 [Example 34] 10 to 50 nM

Supply IC50 value. Item: CCS(=O)(=O)c1cc2[nH]ncc2cc1Nc1nc(Nc2ccc(N3CCC(N(C)C)CC3)cc2OC)ncc1Br [Example 30] < 10 nM

Supply IC50 value. Item: COc1cc(N2CCC(N(C)C)CC2)ccc1Nc1ncc(Cl)c(Nc2ccc3c(cnn3C)c2)n1 [Example 18] 101 to 500 nM

Supply IC50 value. Item: CCN1CCN(c2ccc(Nc3ncc(Br)c(Nc4ccc5scnc5c4)n3)cc2)CC1 [Example 14] 101 to 500 nM

Supply IC50 value. Item: CCS(=O)(=O)c1cc2c(cnn2C)cc1Nc1nc(Nc2ccc(N3CCC(N(C)C)CC3)cc2)ncc1Br [Example 36] 10 to 50 nM

Supply IC50 value. Item: COc1cc(N2CCC(N(C)C)CC2)ccc1Nc1ncc(Br)c(Nc2cc3cn[nH]c3cc2SC(C)C)n1 [Example 24] 10 to 50 nM

Supply IC50 value. Item: CCS(=O)(=O)c1cc2c(cnn2C)cc1Nc1nc(Nc2ccc(N3CCN(C(C)C)CC3)cc2OC)ncc1Br [Example 42] < 10 nM

Supply IC50 value. Item: COc1cc(N2CCC(N(C)C)CC2)ccc1Nc1ncc(Br)c(Nc2cc3cn[nH]c3cc2Cl)n1 [Example 20] 10 to 50 nM

Supply IC50 value. Item: COc1cc(N2CCC(N(C)C)CC2)ccc1Nc1ncc(Br)c(Nc2cc3cn[nH]c3cc2S(=O)(=O)C(C)C)n1 [Example 23] < 10 nM

Supply IC50 value. Item: COc1cc(N2CCC(N3CCN(C)CC3)CC2)ccc1Nc1ncc(Br)c(Nc2ccc3ncccc3c2)n1 [Example 49] 10 to 50 nM

Supply IC50 value. Item: COc1cc(N2CCC(N3CCN(C)CC3)CC2)ccc1Nc1ncc(Br)c(Nc2ccc3nc(-c4ccccc4)ccc3c2)n1 [Example 47] > 500 nM

Supply IC50 value. Item: COc1cc(N2CCC(N3CCN(C)CC3)CC2)ccc1Nc1ncc(Br)c(Nc2cc3cnn(C)c3cc2S(=O)(=O)C(C)C)n1 [Example 28] < 10 nM

Supply IC50 value. Item: CCN1CCN(c2ccc(Nc3ncc(Br)c(Nc4cccc5[nH]c(C)nc45)n3)cc2)CC1 [Example 6] > 500 nM

Supply IC50 value. Item: CCS(=O)(=O)c1cc2c(cnn2C)cc1Nc1nc(Nc2ccc(N3CCC(N(C)C)CC3)cc2OC)ncc1Br [Example 33] < 10 nM

Supply IC50 value. Item: CCS(=O)(=O)c1cc2c(cnn2C)cc1Nc1nc(Nc2ccc(N3CCC(N4CCN(C)CC4)CC3)cc2OC)ncc1Br [Example 46] < 10 nM

Supply IC50 value. Item: CCS(=O)(=O)c1cc2c(cnn2C)cc1Nc1nc(Nc2ccc(N3CCOCC3)cc2OC)ncc1Br [Example 39] 10 to 50 nM

Supply IC50 value. Item: CNC(=O)c1cc2c(cnn2C)cc1Nc1nc(Nc2ccc(N3CCC(N(C)C)CC3)cc2)ncc1Br [Example 38] 10 to 50 nM

Supply IC50 value. Item: COc1cc(N2CCC(N(C)C)CC2)ccc1Nc1ncc(Br)c(Nc2ccc3[nH]ncc3c2)n1 [Example 12] 10 to 50 nM

Supply IC50 value. Item: COc1cc(N2CCC(N(C)C)CC2)ccc1Nc1ncc(Br)c(Nc2cc3cn(C)nc3cc2S(=O)(=O)C(C)C)n1 [Example 29] 101 to 500 nM

Supply IC50 value. Item: COc1cc(N2CCC(N3CCN(C)CC3)CC2)ccc1Nc1ncc(Br)c(Nc2ccc3[nH]ncc3c2)n1 [Example 13] 10 to 50 nM

Supply IC50 value. Item: COc1cc(N2CCC(N(C)C)CC2)ccc1Nc1ncc(Cl)c(Nc2cc3cn[nH]c3cc2S(=O)(=O)C(C)C)n1 [Example 26] 10 to 50 nM

Supply IC50 value. Item: CCN1CCN(c2ccc(Nc3ncc(Br)c(Nc4ccc5c(c4)ncn5Cc4ccccc4)n3)cc2)CC1 [Example 4] 101 to 500 nM

Supply IC50 value. Item: CCS(=O)(=O)c1cc2[nH]ncc2cc1Nc1nc(Nc2ccc(N3CCOCC3)cc2OC)ncc1Br [Example 32] 10 to 50 nM

Supply IC50 value. Item: COc1cc(N2CCC(N(C)C)CC2)ccc1Nc1ncc(Br)c(Nc2cc3cn[nH]c3cc2C)n1 [Example 21] 101 to 500 nM

Supply IC50 value. Item: COc1cc(N2CCC(N(C)C)CC2)ccc1Nc1ncc(Cl)c(Nc2ccc3oc(C)nc3c2)n1 [Example 25] > 500 nM

Supply IC50 value. Item: CCN1CCN(c2ccc(Nc3ncc(Br)c(Nc4cccc5oc(C)nc45)n3)cc2)CC1 [Example 15] 101 to 500 nM

Supply IC50 value. Item: COc1cc(N2CCC(N3CCN(C)CC3)CC2)ccc1Nc1ncc(Br)c(Nc2ccc3ccc(-c4ccccc4)nc3c2)n1 [Example 48] > 500 nM

Supply IC50 value. Item: COc1cc(N2CCC(N(C)C)CC2)ccc1Nc1ncc(Br)c(Nc2cccc3[nH]c(C)nc23)n1 [Example 16] 101 to 500 nM

Supply IC50 value. Item: CCN1CCN(c2ccc(Nc3ncc(C(F)(F)F)c(Nc4ccc5[nH]ncc5c4)n3)cc2)CC1 [Example 11] 101 to 500 nM

----------
For each entry below, report its pIC50 value.
Molecular target: human IGF-1R (Homo sapiens)
Construct: human IGF-1R, amino acids 954-1367 expressed by baculovirus in Sf21 cells; GST (C)
Test: IGF-1R homogenous time-resolved fluorescence (HTRF) in vitro kinase assay
Conditions: recombinant GST-tagged human IGF-1R aa 954-1367; ATP 50 μM; 60 minutes at room temperature
pIC50: −log10 of the molar value.

Supply pIC50 value. Item: CCN1CCN(c2ccc(Nc3ncc(Br)c(Nc4ccc5[nH]c(Cc6ccccc6)nc5c4)n3)cc2)CC1 < 6.30

Supply pIC50 value. Item: COc1cc(N2CCN(C(C)C)CC2)ccc1Nc1ncc(Br)c(Nc2cc3cnn(C)c3cc2S(C)(=O)=O)n1 7.30 to 8.00

Supply pIC50 value. Item: CNC(=O)c1cc2c(cnn2C)cc1Nc1nc(Nc2ccc(N3CCN(C(C)C)CC3)cc2OC)ncc1Br 7.30 to 8.00

Supply pIC50 value. Item: CCN1CCN(c2ccc(Nc3ncc(Br)c(Nc4ccc5[nH]c(C(F)(F)F)nc5c4)n3)cc2)CC1 < 6.30
